Test: total protein half-life in vivo (active degradation + dilution); higher = more stable protein
Conditions: E. coli NCM3722 delta-clpP delta-lon delta-hslV; growth: N-lim chemostat; doubling time 6 h
Kindly state total protein half-life in vivo for each of the entries shown.
Value expressed in h; do not type the unit.

Data request, read-out total protein half-life in vivo, for MINDIKWVQAQRKATDWRQAVEIATRPLVAYGAAQPCYVNGIIENTLNWGPYYLIAPGIALPHARPEQGANYNQVSITTLRTPVAFGNEECDPVWLLLCVSATDANAHILTIQRISQFIDSPQRLTAVGNASTDDALFALVSG
4.94

Lookup MPFRSNNPITRDELLSRFFPQYHPVTTFNSGLSGGSFLIEHQGQRFVVRQPHDPDAPQSAFLRQYRALSQLPACIAPKPHLYLRDWMVVDYLPGAVKTYLPDTNELAGLLYYLHQQPRFGWRITLLPLLELYWQQSDPARRTVGWLRMLKRLRKAREPRPLRLSPLHMDVHAGNLVHSASGLKLIDWEYAGDGDIALELAAVWVENTEQHRQLVNDYATRAKIYPAQLWRQVRRWFPWLLMLKAGWFEYRWRQTGDQQFIRLADDTWRQLLIKQ
6.3

Lookup MGGISIWQLLIIAVIVVLLFGTKKLGSIGSDLGASIKGFKKAMSDDEPKQDKTSQDADFTAKTIADKQADTNQEQAKTEDAKRHDKEQV
4.81

Lookup MKILVDENMPYARDLFSRLGEVTAVPGRPIPVAQLADADALMVRSVTKVNESLLAGKPIKFVGTATAGTDHVDEAWLKQAGIGFSAAPGCNAIAVVEYVFSSLLMLAERDGFSLYDRTVGIVGVGNVGRRLQARLEALGIKTLLCDPPRADRGDEGDFRSLDELVQRADILTFHTPLFKDGPYKTLHLADEKLIRSLKPGAILINACRGAVVDNTALLTCLNEGQKLSVVLDVWEGEPELNVELLKKVDIGTSHIAGYTLEGKARGTTQVFEAYSKFIGHEQHVALDTLLPAPEFGRITLHGPLDQPTLKRLVHLVYDVRRDDAPLRKVAGIPGEFDKLRKNYLERREWSSLYVICDDASAASLLCKLGFNAVHHPAR
5.83

Lookup MKLTLKNLSMAIMMSTIVMGSSAMAADSNEKIVIAHRGASGYLPEHTLPAKAMAYAQGADYLEQDLVMTKDDNLVVLHDHYLDRVTDVADRFPDRARKDGRYYAIDFTLDEIKSLKFTEGFDIENGKKVQTYPGRFPMGKSDFRVHTFEEEIEFVQGLNHSTGKNIGIYPEIKAPWFHHQEGKDIAAKTLEVLKKYGYTGKDDKVYLQCFDADELKRIKNELEPKMGMELNLVQLIAYTDWNETQQKQPDGSWVNYNYDWMFKPGAMKQVAEYADGIGPDYHMLIEETSQPGNIKLTGMVQDAQQNKLVVHPYTVRSDKLPEYTPDVNQLYDALYNKAGVNGLFTDFPDKAVKFLNKE
5.71

Lookup MMSTTLFKDFTFEAAHRLPHVPEGHKCGRLHGHSFMVRLEITGEVDPHTGWIIDFAELKAAFKPTYERLDHHYLNDIPGLENPTSEVLAKWIWDQVKPVVPLLSAVMVKETCTAGCIYRGE
4.72

Lookup MNVIRTEIEDVLILEPRVFGDDRGFFYESFNQSAFEHILGYPVSFVQDNHSRSSKNVLRGLHFQRGEYAQDKLVRCTHGAVFDVAVDIRPNSVSFGKWVGVLLSADNKQQLWIPKGFAHGFLVLSDIAEFQYKTTNYYHPESDCGICWNDERIAIDWPQTSGLILSPKDERLFTLDELIRLKLIA
6.28

Lookup MYHDVSYLLSRLINGPLSLRQIYFASSNGPVPDLAYQVDFPRLEIVLEGEFVDTGAGATLVPGDVLYVPAGGWNFPQWQAPATTFSVLFGKQQLGFSVVQWDGKQYQNLAKQHVARRGPRIGSFLLQTLNEMQMQPQEQQTARLIVASLLSHCRDLLGSQIQTASRSQALFEAIRDYIDERYASALTRESVAQAFYISPNYLSHLFQKTGAIGFNEYLNHTRLEHAKTLLKGYDLKVKEVAHACGFVDSNYFCRLFRKNTERSPSEYRRQYHSQLTEKPTTPE
5.77

Lookup MGLPPLSKIPLILRPQAWLHRRHYGEVLSPIRWWGRIPFIFYLVSMFVGWLERKRSPLDPVVRSLVSARIAQMCLCEFCVDITSMKVAERTGSSDKLLAVADWRQSPLFSDEERLALEYAEAASVTPPTVDDALRTRLAAHFDAQALTELTALIGLQNLSARFNSAMDIPAQGLCRIPEKRS
6.87

Lookup MFSIQQPLLVFSDLDGTLLDSHSYDWQPAAPWLTRLREANVPVILCSSKTSAEMLYLQKTLGLQGLPLIAENGAVIQLAEQWQEIDGFPRIISGISHGEISLVLNTLREKEHFKFTTFDDVDDATIAEWTGLSRSQAALTQLHEASVTLIWRDSDERMAQFTARLNELGLQFMQGARFWHVLDASAGKDQAANWIIATYQQLSGKRPTTLGLGDGPNDAPLLEVMDYAVIVKGLNREGVHLHDEDPARVWRTQREGPEGWREGLDHFFSAR
4.98

Lookup MIISEMQRKLATWAATDPSLRIQRLLRLITQPEWLAEAARITLSSKGAHTPGVDGVNKTMLQARLAVELQILRDELLSGHYQPLPARRVYIPKSNGKLRPLGIPALRDRIVQRAMLMAMEPIWESDFHTLSYGFRPERSVHHAIRTVKLQLTDCGETRGRWVIEGDLSSYFDTVHHRLLMKAVRRRISDARFMTLLWKTIKAGHIDVGLFRAASEGVPQGGVISPLLSNIMLNEFDQYLHERYLSGKARKDRWYWNNSIQRGRSTAVRENWQWKPAVAYCRYADDFVLIVKGTKAQVEAIREECRGVLEGSLKLRLNMDKTKIPHVNDGFIFLGHRLIRKRSRYGEMRVVSTIPQEKARNFAASLTALLWKVRISGEILLG
4.72

Lookup MSCEELEIVWNNIKAEARTLADCEPMLASFYHATLLKHENLGSALSYMLANKLSSPIMPAIAIREVVEEAYAADPEMIASAACDIQAVRTRDPAVDKYSTPLLYLKGFHALQAYRIGHWLWNQGRRALAIFLQNQVSVTFQVDIHPAAKIGRGIMLDHATGIVVGETAVIENDVSILQSVTLGGTGKSGGDRHPKIREGVMIGAGAKILGNIEVGRGAKIGAGSVVLQPVPPHTTAAGVPARIVGKPDSDKPSMDMDQHFNGINHTFEYGDGI [P0A9D4]
5.17

---

Kindly state total protein half-life in vivo for each of the entries shown.
Assay: total protein half-life in vivo (active degradation + dilution); higher = more stable protein
Details: E. coli NCM3722 delta-clpP; growth: N-lim chemostat; doubling time 6 h
Output should be the measured figure followed by the unit it is expressed in.

Data request, read-out total protein half-life in vivo, for MTMTRLKISKTLLAVMLTSAVATGSAYAENNAQTTNESAGQKVDSSMNKVGNFMDDSAITAKVKAALVDHDNIKSTDISVKTDQKVVTLSGFVESQAQAEEAVKVAKGVEGVTSVSDKLHVRDAKEGSVKGYAGDTATTSEIKAKLLADDIVPSRHVKVETTDGVVQLSGTVDSQAQSDRAESIAKAVDGVKSVKNDLKTK [P0AFH8]
4.7 h

Lookup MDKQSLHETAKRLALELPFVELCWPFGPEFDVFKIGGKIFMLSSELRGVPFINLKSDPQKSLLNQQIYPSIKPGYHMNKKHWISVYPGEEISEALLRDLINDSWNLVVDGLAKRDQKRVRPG [P0AAT2]
6.23 h

Lookup MESGHRFDAQTLHSFIQAVFRQMGSEEQEAKLVADHLIAANLAGHDSHGIGMIPSYVRSWSQGHLQINHHAKTVKEAGAAVTLDGDRAFGQVAAHEAMALGIEKAHQHGIAAVALHNSHHIGRIGYWAEQCAAAGFVSIHFVSVVGIPMVAPFHGRDSRFGTNPFCVVFPRKDNFPLLLDYATSAIAFGKTRVAWHKGVPVPPGCLIDVNGVPTTNPAVMQESPLGSLLTFAEHKGYALAAMCEILGGALSGGKTTHQETLQTSPDAILNCMTTIIINPELFGAPDCNAQTEAFAEWVKASPHDDDKPILLPGEWEVNTRRERQKQGIPLDAGSWQAICDAARQIGMPEETLQAFCQQLAS
3.99 h

---

Test: total protein half-life in vivo (active degradation + dilution); higher = more stable protein
Conditions: wild type E. coli NCM3722; growth: N-lim chemostat; doubling time 12 h
Kindly state total protein half-life in vivo for each of the entries shown.
Value expressed in h; do not type the unit.

Data request, read-out total protein half-life in vivo, for MVDKSQETTHFGFQTVAKEQKADMVAHVFHSVASKYDVMNDLMSFGIHRLWKRFTIDCSGVRRGQTVLDLAGGTGDLTAKFSRLVGETGKVVLADINESMLKMGREKLRNIGVIGNVEYVQANAEALPFPDNTFDCITISFGLRNVTDKDKALRSMYRVLKPGGRLLVLEFSKPIIEPLSKAYDAYSFHVLPRIGSLVANDADSYRYLAESIRMHPDQDTLKAMMQDAGFESVDYYNLTAGVVALHRGYKF [P0A887]
8.27

Lookup MELIFLGTSAGVPTRTRNVTAILLNLQHPTQSGLWLFDCGEGTQHQLLHTAFNPGKLDKIFISHLHGDHLFGLPGLLCSRSMSGIIQPLTIYGPQGIREFVETALRISGSWTDYPLEIVEIGAGEILDDGLRKVTAYPLEHPLECYGYRIEEHDKPGALNAQALKAAGVPPGPLFQELKAGKTITLEDGRQINGADYLAAPVPGKALAIFGDTGPCDAALDLAKGVDVMVHEATLDITMEAKANSRGHSSTRQAATLAREAGVGKLIITHVSSRYDDKGCQHLLRECRSIFPATELANDFTVFNV [P0A8V0]
7.42

Lookup MRTLQGWLLPVFMLPMAVYAQEATVKEVHDAPAVRGSIIANMLQEHDNPFTLYPYDTNYLIYTQTSDLNKEAIASYDWAENARKDEVKFQLSLAFPLWRGILGPNSVLGASYTQKSWWQLSNSEESSPFRETNYEPQLFLGFATDYRFAGWTLRDVEMGYNHDSNGRSDPTSRSWNRLYTRLMAENGNWLVEVKPWYVVGNTDDNPDITKYMGYYQLKIGYHLGDAVLSAKGQYNWNTGYGGAELGLSYPITKHVRLYTQVYSGYGESLIDYNFNQTRVGVGVMLNDLF [P0A921]
13.3

Lookup MTSLVSLENVSVSFGQRRVLSDVSLELKPGKILTLLGPNGAGKSTLVRVVLGLVTPDEGVIKRNGKLRIGYVPQKLYLDTTLPLTVNRFLRLRPGTHKEDILPALKRVQAGHLINAPMQKLSGGETQRVLLARALLNRPQLLVLDEPTQGVDVNGQVALYDLIDQLRRELDCGVLMVSHDLHLVMAKTDEVLCLNHHICCSGTPEVVSLHPEFISMFGPRGAEQLGIYRHHHNHRHDLQGRIVLRRGNDRS [P0A9X1]
5.01

Lookup MSERLSITPLGPYIGAQISGADLTRPLSDNQFEQLYHAVLRHQVVFLRDQAITPQQQRALAQRFGELHIHPVYPHAEGVDEIIVLDTHNDNPPDNDNWHTDVTFIETPPAGAILAAKELPSTGGDTLWTSGIAAYEALSVPFRQLLSGLRAEHDFRKSFPEYKYRKTEEEHQRWREAVAKNPPLLHPVVRTHPVSGKQALFVNEGFTTRIVDVSEKESEALLSFLFAHITKPEFQVRWRWQPNDIAIWDNRVTQHYANADYLPQRRIMHRATILGDKPFYRAG
2.31

Lookup MIDFGNFYSLIAKNHLSHWLETLPAQIANWQREQQHGLFKQWSNAVEFLPEIKPYRLDLLHSVTAESEEPLSAGQIKRIETLMRNLMPWRKGPFSLYGVNIDTEWRSDWKWDRVLPHLSDLTGRTILDVGCGSGYHMWRMIGAGAHLAVGIDPTQLFLCQFEAVRKLLGNDQRAHLLPLGIEQLPALKAFDTVFSMGVLYHRRSPLEHLWQLKDQLVNEGELVLETLVIDGDENTVLVPGDRYAQMRNVYFIPSALALKNWLKKCGFVDIRIADVSVTTTEEQRRTEWMVTESLADFLDPHDPGKTVEGYPAPKRAVLIARKP
11.6

Lookup MSIEIANIKKSFGRTQVLNDISLDIPSGQMVALLGPSGSGKTTLLRIIAGLEHQTSGHIRFHGTDVSRLHARDRKVGFVFQHYALFRHMTVFDNIAFGLTVLPRRERPNAAAIKAKVTKLLEMVQLAHLADRYPAQLSGGQKQRVALARALAVEPQILLLDEPFGALDAQVRKELRRWLRQLHEELKFTSVFVTHDQEEATEVADRVVVMSQGNIEQADAPDQVWREPATRFVLEFMGEVNRLQGTIRGGQFHVGAHRWPLGYTPAYQGPVDLFLRPWEVDISRRTSLDSPLPVQVLEASPKGHYTQLVVQPLGWYNEPLTVVMHGDDAPQRGERLFVGLQHARLYNGDERIETRDEELALAQSA
2.85

Lookup MSRRAGTPTAKKVTQLVNVEEHVEGFRQVREAHRRELIDDYVELISDLIREVGEARQVDMAARLGVSQPTVAKMLKRLATMGLIEMIPWRGVFLTAEGEKLAQESRERHQIVENFLLVLGVSPEIARRDAEGMEHHVSEETLDAFRLFTQKHGAK [P0A9F1]
9.78

Lookup MKTLIVSTVLAFITFSAQAAAFQVTSNEIKTGEQLTTSHVFSGFGCEGGNTSPSLTWSGVPEGTKSFAVTVYDPDAPTGSGWWHWTVVNIPATVTYLPVDAGRRDGTKLPTGAVQGRNDFGYAGFGGACPPKGDKPHHYQFKVWALKTEKIPVDSNSSGALVGYMLNANKIATAEITPVYEIK
10.9

Lookup MEQRRLASTEWVDIVNEENEVIAQASREQMRAQCLRHRATYIVVHDGMGKILVQRRTETKDFLPGMLDATAGGVVQADEQLLESARREAEEELGIAGVPFAEHGQFYFEDKNCRVWGALFSCVSHGPFALQEDEVSEVCWLTPEEITARCDEFTPDSLKALALWMKRNAKNEAVETETAE
3.09

Lookup MQKVVLATGNVGKVRELASLLSDFGLDIVAQTDLGVDSAEETGLTFIENAILKARHAAKVTALPAIADDSGLAVDVLGGAPGIYSARYSGEDATDQKNLQKLLETMKDVPDDQRQARFHCVLVYLRHAEDPTPLVCHGSWPGVITREPAGTGGFGYDPIFFVPSEGKTAAELTREEKSAISHRGQALKLLLDALRNG
6.87

Lookup MALLDFFLSRKKNTANIAKERLQIIVAERRRSDAEPHYLPQLRKDILEVICKYVQIDPEMVTVQLEQKDGDISILELNVTLPEAEELK [P0A734]
6.22
